target: rat PGT (Rattus norvegicus (Rat)); test: [3H]PGE2 uptake inhibition in MDCK cells stably transfected with rat PGT (percent inhibition and IC50); conditions: [3H]PGE2 uptake, MDCK cells stably transfected with rat PGT
pIC50: −log10 of the molar value.
QUANTITY KIND: pIC50

>>> print(df.to_string())
                                   compound                 measurement_target  endpoint_result
0  COc1cccc(CNC(=O)c2ccc(Nc3nc(NCCOCCOCCNC(=O)c4ccccc4)nc(Nc4ccc(O)cc4)n3)cc2)c1 [compound 88]  rat PGT (Rattus norvegicus (Rat))             6.09
1  CCCCCCNC(=O)c1ccc(Nc2nc(NCCOCCOCCNC(=O)c3ccccc3)nc(Nc3ccc4[nH]ncc4c3)n2)cc1 [compound 65]  rat PGT (Rattus norvegicus (Rat))             5.86
2  O=C(NCCOCCOCCNc1nc(Nc2ccc(O)cc2)nc(Nc2ccc(C(=O)NCc3ccccc3-c3ccccc3)cc2)n1)c1ccccc1 [compound 86]  rat PGT (Rattus norvegicus (Rat))             6.06
3  CN(c1ccc(C(=O)NCc2ccccc2)cc1)c1nc(NCCOCCOCCNC(=O)c2ccccc2)nc(Nc2ccc(O)cc2)n1 [compound 124]  rat PGT (Rattus norvegicus (Rat))             7.47
4  CC(C)(C)NC(=O)c1ccc(Nc2nc(NCCOCCOCCNC(=O)c3ccccc3)nc(Nc3ccc(O)cc3)n2)cc1 [compound 16]  rat PGT (Rattus norvegicus (Rat))             5.01
5  O=C(NCCOCCOCCNc1nc(Nc2ccc(O)cc2)nc(Nc2ccc(C(=O)NCc3ccccc3F)cc2)n1)c1ccccc1 [compound 110]  rat PGT (Rattus norvegicus (Rat))             7.50
6  O=C(NCCOCCOCCNc1nc(Nc2ccccc2)nc(Nc2ccc3cn[nH]c3c2)n1)c1ccccc1 [compound 53]  rat PGT (Rattus norvegicus (Rat))             5.39
